Values compiled from the Immune Epitope Database (IEDB).

- MEASURED ON: HLA-A*02:01
- TEST METHOD NOTES: IEDB peptide-MHC binding, purified MHC/competitive/fluorescence; filed as Kd, often an IC50 or EC50 that approximates it; bounds were set here for any values at or beyond the usual limits of such assays
- ASSAY CONDITIONS: source organism: Vaccinia virus WR 65-16
QUANTITY: pKd
In simple prose, pKd is minus the logarithm base ten of a concentration in moles per litre.

Given the sequence `TLRAAMISL` , write its reported pKd.
5.64

###

- MEASURED ON: HLA-A*02:03
- TEST METHOD NOTES: IEDB peptide-MHC binding, purified MHC/direct/fluorescence; filed as Kd, often an IC50 or EC50 that approximates it; bounds were set here for any values at or beyond the usual limits of such assays
- ASSAY CONDITIONS: source organism: Mycobacterium tuberculosis F11
QUANTITY: Kd (nM)
Number in nM, nothing else.

Given the sequence `FLFGDDDAL` , write its reported Kd.
2

###

- MEASURED ON: HLA-B*39:01
- TEST METHOD NOTES: IEDB peptide-MHC binding, purified MHC/competitive/fluorescence; filed as Kd, often an IC50 or EC50 that approximates it; bounds were set here for any values at or beyond the usual limits of such assays
- ASSAY CONDITIONS: source organism: Human immunodeficiency virus 1
QUANTITY: Kd

Report the value of Kd obtained on HLA-B*39:01 for `KLKSLYNTV` .
≥ 20 µM

Report the value of Kd obtained on HLA-B*39:01 for `GTEEIRSLY` .
≥ 20 µM

###

- MEASURED ON: HLA-A*29:02
- TEST METHOD NOTES: IEDB peptide-MHC binding, purified MHC/competitive/fluorescence; filed as Kd, often an IC50 or EC50 that approximates it; bounds were set here for any values at or beyond the usual limits of such assays
- ASSAY CONDITIONS: source organism: Rickettsia akari str. Hartford
QUANTITY: Kd

Given the sequence `FTARIIIFS` , write its reported Kd.
≥ 20 µM

###

- MEASURED ON: HLA-C*07:02
- TEST METHOD NOTES: IEDB peptide-MHC binding, purified MHC/direct/fluorescence; filed as Kd, often an IC50 or EC50 that approximates it; bounds were set here for any values at or beyond the usual limits of such assays
- ASSAY CONDITIONS: source organism: Saccharomyces cerevisiae
QUANTITY: Kd (nM)
Number in nM, nothing else.

Given the sequence `VRKCLQLIF` , write its reported Kd.
53

###

- MEASURED ON: HLA-B*58:01
- TEST METHOD NOTES: IEDB peptide-MHC binding, purified MHC/direct/fluorescence; filed as Kd, often an IC50 or EC50 that approximates it; bounds were set here for any values at or beyond the usual limits of such assays
- ASSAY CONDITIONS: source organism: Camelpox virus M-96
Reported Kd is given for each of the following sequences.

YQYIFLSFF = ≥ 20 µM

Could you now consider this next sequence?
Given the sequence `TESDAIRTL` , write its reported Kd.
≥ 20 µM

###

- MEASURED ON: HLA-A*31:01
- TEST METHOD NOTES: IEDB peptide-MHC binding, purified MHC/direct/fluorescence; filed as Kd, often an IC50 or EC50 that approximates it; bounds were set here for any values at or beyond the usual limits of such assays
- ASSAY CONDITIONS: source organism: Vibrio parahaemolyticus
pKd: −log10 of the molar value.
QUANTITY: pKd

Given the sequence `YREAGIPVL` , write its reported pKd.
≤ 4.70

###

Reported Kd is given for each of the following sequences.
- MEASURED ON: HLA-B*27:05
- TEST METHOD NOTES: IEDB peptide-MHC binding, purified MHC/direct/fluorescence; filed as Kd, often an IC50 or EC50 that approximates it; bounds were set here for any values at or beyond the usual limits of such assays
- ASSAY CONDITIONS: source organism: Camelpox virus M-96

YQYIFLSFF = ≥ 20 µM

Could you now consider this next sequence?
Given the sequence `TESDAIRTL` , write its reported Kd.
≥ 20 µM

###

- MEASURED ON: HLA-A*23:01
- TEST METHOD NOTES: IEDB peptide-MHC binding, purified MHC/direct/fluorescence; filed as Kd, often an IC50 or EC50 that approximates it; bounds were set here for any values at or beyond the usual limits of such assays
- ASSAY CONDITIONS: source organism: Salmonella enterica subsp. enterica serovar Typhimurium str. LT2
pKd: −log10 of the molar value.
QUANTITY: pKd

Given the sequence `FKYDSTKPL` , write its reported pKd.
≤ 4.70

###

- MEASURED ON: HLA-A*02:19
- TEST METHOD NOTES: IEDB peptide-MHC binding, purified MHC/direct/fluorescence; filed as Kd, often an IC50 or EC50 that approximates it; bounds were set here for any values at or beyond the usual limits of such assays
- ASSAY CONDITIONS: source organism: Hantaanvirus CGRn93P8
QUANTITY: pKd
In simple prose, pKd is minus the logarithm base ten of a concentration in moles per litre.

Given the sequence `QMISPVMSV` , write its reported pKd.
8.15

###

- MEASURED ON: HLA-B*15:01
- TEST METHOD NOTES: IEDB peptide-MHC binding, purified MHC/direct/fluorescence; filed as Kd, often an IC50 or EC50 that approximates it; bounds were set here for any values at or beyond the usual limits of such assays
- ASSAY CONDITIONS: source organism: Rickettsia prowazekii
QUANTITY: Kd (µM)
Number in µM, nothing else.

Given the sequence `GSFKEYVFW` , write its reported Kd.
5.69

###

- MEASURED ON: HLA-B*39:01
- TEST METHOD NOTES: IEDB peptide-MHC binding, purified MHC/competitive/fluorescence; filed as Kd, often an IC50 or EC50 that approximates it; bounds were set here for any values at or beyond the usual limits of such assays
- ASSAY CONDITIONS: source organism: Vibrio vulnificus CMCP6
QUANTITY: Kd

Given the sequence `LEMNDAPTA` , write its reported Kd.
≥ 20 µM

###

- MEASURED ON: HLA-A*24:02
- TEST METHOD NOTES: IEDB peptide-MHC binding, purified MHC/direct/fluorescence; filed as Kd, often an IC50 or EC50 that approximates it; bounds were set here for any values at or beyond the usual limits of such assays
- ASSAY CONDITIONS: source organism: Toxoplasma gondii
QUANTITY: Kd

Given the sequence `ISPRNYFTF` , write its reported Kd.
≤ 1 nM

###

- MEASURED ON: HLA-B*15:01
- TEST METHOD NOTES: IEDB peptide-MHC binding, purified MHC/direct/fluorescence; filed as Kd, often an IC50 or EC50 that approximates it; bounds were set here for any values at or beyond the usual limits of such assays
- ASSAY CONDITIONS: source organism: Vaccinia virus Copenhagen
QUANTITY: Kd (µM)
Number in µM, nothing else.

Report the value of Kd obtained on HLA-B*15:01 for `LFMSHVKSV` .
15.2

###

- MEASURED ON: HLA-B*58:01
- TEST METHOD NOTES: IEDB peptide-MHC binding, purified MHC/direct/fluorescence; filed as Kd, often an IC50 or EC50 that approximates it; bounds were set here for any values at or beyond the usual limits of such assays
- ASSAY CONDITIONS: source organism: Escherichia coli
pKd: −log10 of the molar value.
QUANTITY: pKd

Report the value of pKd obtained on HLA-B*58:01 for `WCRVGRGTI` .
≤ 4.70

###

- MEASURED ON: HLA-A*26:01
- TEST METHOD NOTES: IEDB peptide-MHC binding, purified MHC/competitive/fluorescence; filed as Kd, often an IC50 or EC50 that approximates it; bounds were set here for any values at or beyond the usual limits of such assays
- ASSAY CONDITIONS: source organism: Pan troglodytes
QUANTITY: Kd

Given the sequence `KVRDRNFQL` , write its reported Kd.
≥ 20 µM

###

- MEASURED ON: HLA-A*26:01
- TEST METHOD NOTES: IEDB peptide-MHC binding, purified MHC/direct/fluorescence; filed as Kd, often an IC50 or EC50 that approximates it; bounds were set here for any values at or beyond the usual limits of such assays
- ASSAY CONDITIONS: source organism: Salmonella enterica
pKd: −log10 of the molar value.
QUANTITY: pKd

Given the sequence `EHFYWGSVF` , write its reported pKd.
≤ 4.70

###

- MEASURED ON: HLA-A*02:19
- TEST METHOD NOTES: IEDB peptide-MHC binding, purified MHC/competitive/fluorescence; filed as Kd, often an IC50 or EC50 that approximates it; bounds were set here for any values at or beyond the usual limits of such assays
- ASSAY CONDITIONS: source organism: Rickettsia akari str. Hartford
QUANTITY: Kd

Report the value of Kd obtained on HLA-A*02:19 for `FTARIIIFS` .
≥ 20 µM
